Numbers sourced from the nanobody polyreactivity screen of Harvey et al. (2022).

assay: yeast display, Sf9 membrane polyspecificity reagent, FACS + sequencing; frameworks hold sequencing errors
endpoint.name: polyreactivity (PSR sort gate)

Consider the following illustrative entries.
QVQLVESGGGLVQAGGSLRLSCAASGRTFLLNAMGWYRQAPGKERELVAAITRSGVITYYADSVKGRFTISRDNAKNTVYLQMNSLKPEDTAVYYCAAQLRYSYLRPSYYYWGQGTQVTVSS = high polyreactivity
QVQLGESGGGLVEAGGSLRLSCAASGSTFNRYAMGWYRQAPGKERELVAAISFSGGRTYYADSVKGRFTISRDNAKNTVYLQMNSLKPEDTAVYYCAKVVYGYFTRAYTYNYWGHGTQVTVSS = high polyreactivity
QVHLVESGGGLVQAGGTLRLSCAASGFTFRIYAMGWYIQAPGKERELVATISWSGTSTYYADSVKGRFTISRDNAKNTVYLQMNSLKPEDTAVYYCAKDGVSVYWLNKYYYWGQGTQVTVSS = low polyreactivity
QVQLVDSGGGLVQAGGSLRLTCAASGSTIYWYAMGWYRQAPGKERELVAAISSSGSTKYADSVKGRFTISRDNAKNNVYLQINSLKPEDTAVYYCAADVEYDRDVPQQVYVSDDYWGQGTKVTVSS = low polyreactivity
QVQLVESGGGLVQAGGSLRLSCAASGYIFDGNAMGWYRQAPGKERELVAPITWTGGSTYYADSVKGRFTISRDNAKNTVYLQMNSLKPEDTAVYYCAKPYDPGPYHSSYRATDDYWGQGTQVTVSS = low polyreactivity
QVQLVESGGGLVQAGGSLRLSCAASGFTFSVNAMGWYRQAPGKERELVAAITRSGGRTYYADSVKGRFTISRDNAKNTVYLQMNSLKPEDTAVYYCATPRSRTDGYDYWGQGTQVTVSS = high polyreactivity

**Query** Param item = QVQLVESGGGLVQAGGSLRLSCAASGLTFYYYAMGWYRQAPGKQRELVAAINSSGGITFYADSVKGRFTISRDNAKNTFYLQMNSLKPEDTAVYYCASGGRSNRYGYWGQGTQVTVSS ; retrieve measured polyreactivity (PSR sort gate).
**Result** low polyreactivity

**Query** Consider the sequence QVQLVESAGGLVQAGGSLRLSCAASGSTFFTYTMGWYRQAPGKERELVAAISSGGSTYYADSVKGRFTISRDNAKNTVYLQMNSLKPEDTAVYYLLRGQGTQVTVSS and give its measured polyreactivity (PSR sort gate).
**Result** low polyreactivity

**Query** State the recorded polyreactivity (PSR sort gate) for this entry: QVQLVESGGGLVQAGGSLRLSSSASGSIFASNAMGWYRQEPGKERELVAAINSGDSTNYADSVKGRFTISRDNAKNTVYLQMNSLKPEDTAVYYCNAEYRYYQKTPVLYTNVEYDYWGQGTQVTVSS
**Result** low polyreactivity

**Query** Name the reported polyreactivity (PSR sort gate) value associated with the sequence QVQLVESGGGLVQAGGSLRLSCAASGSTFYFNTMGWYRQAPGKERELVAAINSIGGSTYYADSVKGRFTISRDNAKNTVYLQMNSLKPEDTAVYYCAKLKRLYYWSSHTSYGYDYWGQGTQVTVSS
**Result** high polyreactivity

**Query** Entry QVQLVESGGGLVQAGGSLRLSCAASGSIFDYNAMGWYREAAGKEREFVASITYSGGSTNYADSVKGRFTISRDNAKNTVYLQMNSLKPEDTAVYYCSKTIGIVWIYYPGARYEDWGQGTQVTVSS has what polyreactivity (PSR sort gate)?
**Result** low polyreactivity
